biological target: recombinant human GITR (Cat No. 13643-H08H, Lot No. LC12JA2509, Sino Biological) (human) (UniProt Q9Y5U5); assay: SPR Biacore 8K, single-cycle kinetics, IgG in supernatant captured on Protein A, GITR as analyte
test.readout: pKd
API: returns pKd as number; meaning -log10 of concentration in mol/L.

anti-GITR 51B VH2/VL1 humanized antibody (human IgG1, kappa) (antibody, V domains shown) VH: QVQLVQSGAEVKKPGASVKLSCKTTGYRFTGYWIEWVRQPPGKGLEWIGEILPGSGATYYSENFKGKATITADTSTNTAYMEVSSLRSEDTAIYYCARKGGYYAMDYWGQGTLVTVSS VL: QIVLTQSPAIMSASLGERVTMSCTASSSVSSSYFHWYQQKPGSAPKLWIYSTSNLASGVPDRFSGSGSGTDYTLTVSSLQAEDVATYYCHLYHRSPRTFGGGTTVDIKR = 8.96

Consider now this further binder.
Asked: I would be grateful if you could share the reported pKd for anti-GITR 51B VH4/VL4 humanized antibody (human IgG1, kappa) (antibody, V domains shown) VH: QVQLVQSGAEVKKPGASVKVSCKTTGYRFTGYWINWVRQPPGKGLEWIGEILPGSGATYYSENFKGKVTITADTSTDTAYMELSSLRSEDTAIYYCARKGGYYAMDYWGQGTLVTVSS VL: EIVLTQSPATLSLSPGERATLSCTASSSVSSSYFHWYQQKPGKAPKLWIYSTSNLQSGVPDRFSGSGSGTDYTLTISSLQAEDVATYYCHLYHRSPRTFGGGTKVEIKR .
Given back: 9.01
